System: XIP peptide (Xip251-270)
Experiment: small-molecule binders of XIP peptide, primary screen, biochemical, small-molecule microarray, fluorescence 635/667 nm, 0.5 µg/mL protein (AID 1183)
Details: small-molecule microarray binding, fluorescence 635 nm; higher = more signal
Recorded composite z-score for the following compounds

Request: Can you look up the measured composite z-score of COC(=O)[C@@H]1CC[C@H](C)[C@@H](c2ccc(C)cc2)N1C(=O)c1ccc(C=NO[C@@H](C)c2cc(-c3c(C)cc(C)cc3C)no2)cc1 for me?
Response: 0.511

Request: Would you kindly repeat that for CCOC(=O)CCN1C(=O)[C@H]2[C@H]3[C@H](O)[C@H](O)CC(=NNC(=O)OCc4ccccc4)[C@H]3CC[C@H]2C1=O ?
Response: -0.0907

Request: Would you kindly repeat that for COC(=O)[C@@H]1CC[C@H](C)[C@@H](c2ccc(Br)cc2)N1C[C@@H](O)CN=[N+]=[N-] ?
Response: -0.03

Request: Would you kindly repeat that for CCOC(=O)[C@H](Cc1ccccc1)NC(=O)CCC1CC(OC(=O)NCc2ccc3c(c2)OCO3)CC2(CCCC(COC(=O)NCCOc3ccccc3)O2)O1 (some centres not stated) ?
Response: 0.565

Request: Would you kindly repeat that for COC(=O)[C@H](C)NC(=O)CCC1CC(OC(=O)NCc2cccc3ccccc23)CC2(CCCC(COC(=O)NCCC(C)C)O2)O1 (some centres not stated) ?
Response: 0.468

Request: Would you kindly repeat that for CO[C@@H](C(C)C)[C@@H](C)C1OC(=O)CC1O (some centres not stated) ?
Response: 0.129

Request: Would you kindly repeat that for C[C@@H]1CC[C@H]2C(=O)O[C@@H](CN=[N+]=[N-])CN2[C@H]1c1ccc(Br)cc1 ?
Response: 0.688

Request: Would you kindly repeat that for COC(=O)[C@H](C)NC(=O)CCC1CC(OC(=O)NCCc2ccc(F)cc2)CC2(CCCC(COC(=O)NCc3ccccc3)O2)O1 (some centres not stated) ?
Response: 0.607

Request: Would you kindly repeat that for CCOC(=O)NN=C1C[C@@H](O)[C@@H](O)[C@@H]2[C@@H]3C(=O)N(C[C@@H]4CCCO4)C(=O)[C@@H]3CC[C@H]12 ?
Response: 0.0356

Request: Would you kindly repeat that for COC(=O)[C@H](C)NC(=O)CCC1CC(OC(=O)NCc2cccc3ccccc23)CC2(CCCC(COC(=O)NCc3ccccc3)O2)O1 (some centres not stated) ?
Response: 0.461

Request: Would you kindly repeat that for CCOC(=O)[C@H](Cc1ccccc1)NC(=O)CCC1CC(OC(=O)NCCc2ccc(F)cc2)CC2(CCCC(COC(=O)NCCC(C)C)O2)O1 (some centres not stated) ?
Response: 0.657

Request: Would you kindly repeat that for CCCNC(=O)OC[C@H]1O[C@H](CCON=C[C@@H](C)[C@H](OCc2ccccc2)C(C)C)C=C[C@@H]1Oc1ccc(OC)cc1 ?
Response: -0.267

* * *

Test: small-molecule microarray binders of probe aEGFR, primary screen, biochemical, biotinylated probe, 635/667 nm fluorescence (AID 1097);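 further: probe is a biotinylated anti-EGFR antibody binding compounds printed on slides; score combines fluorescence near 667 nm and signal to noise of each spot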
Conditions: higher = more signal
Recorded composite z-score for the following compounds

// below: answered compounds
{"compound": "O=C1C2=CC[C@H]3C(=O)N(C4CCCCC4)C(=O)[C@H]3[C@H]2[C@H](O)[C@@H]2O[C@H]12", "composite z-score": -0.0389}
{"compound": "CON=C1c2cc(OC)ccc2O[C@H](c2cccc(OC)c2)[C@H]1O", "composite z-score": 0.0242}
{"compound": "CCOC(=O)[C@H](Cc1ccccc1)NC(=O)CCC1CC(OC(=O)NCCc2ccc(F)cc2)CC2(CCCC(COC(=O)NCCOc3ccccc3)O2)O1 (stereo partly drawn)", "composite z-score": 0.0009}
{"compound": "CO[C@H]1C[C@@H]2C[C@H](O)CC(CC(=O)O[C@@H](C=CCC(C)C)C[C@@H]3CC[C@H](C)[C@@H](C1)O3)O2", "composite z-score": -0.0458}
{"compound": "C[C@H]1CC[C@@H](C(=O)O)N[C@@H]1c1cccc(N2CCCC2=O)c1", "composite z-score": -0.123}
{"compound": "O=C1[C@H]2[C@H]3[C@H](O)[C@H](O)CC(=NOCc4ccccc4)[C@@H]3CC[C@H]2C(=O)N1c1cccc(Oc2ccccc2)c1", "composite z-score": -0.0967}

Request: Can you look up the measured composite z-score of C[C@]12CCC3c4ccc(OCC5CO5)cc4CCC3C1CC[C@@H]2O (stereo partly drawn) for me?
Response: 0.0025

Request: Would you kindly repeat that for C=CC[C@@H]1C=C[C@H](Oc2ccc(C)cc2)[C@@H](COC(=O)NCc2cccc3ccccc23)O1 ?
Response: -0.136

* * *

Assay: binders of probe aFGF2 on microarray, primary screen, stem cell growth factor project, biochemical, small-molecule microarray, fluorescence 635/667 (AID 1067);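 further: measures binding of biotinylated aFGF2 protein to printed compounds on slides; z-score merges feature fluorescence and signal-to-noise across triplicate slides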
Details: higher = more signal
Tag: satisfied if measured composite z-score is not below -0.1, not satisfied if it is.

{"compound": "O=C1C2=CC[C@H]3C(=O)N(C[C@@H]4CCCO4)C(=O)[C@H]3[C@H]2[C@H](O)[C@@H]2O[C@H]12", "cat": "satisfied"}
{"compound": "COc1ccc(COC(=O)NN=C2C[C@@H](O)[C@@H](O)[C@@H]3[C@@H]4C(=O)N(Cc5ccc6c(c5)OCO6)C(=O)[C@@H]4CC[C@H]23)cc1", "cat": "satisfied"}

Consider the record given below.
Request: Assess whether reported composite z-score for COC(OC)[C@@H](C)[C@H](OC)[C@@H](C)[C@H](OC)c1ccccc1 sits at -0.1 or higher.
Response: not satisfied

* * *

Assay: small-molecule microarray binders of probe aEGFR, primary screen, biochemical, biotinylated probe, 635/667 nm fluorescence (AID 1097);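 further: probe is a biotinylated anti-EGFR antibody binding compounds printed on slides; score combines fluorescence near 667 nm and signal to noise of each spot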
Settings: higher = more signal
parameter: composite z-score

// below: answered compounds
{"compound": "O=C(NN=C1C[C@@H](O)[C@@H](O)[C@@H]2[C@@H]3C(=O)N(Cc4ccccc4)C(=O)[C@@H]3CC[C@H]12)OCc1ccccc1", "composite z-score": -0.0796}
{"compound": "CCCNC(=O)OC[C@H]1O[C@H](CCON=C2c3cc(OC)ccc3O[C@H](c3cccc(OC)c3)[C@H]2O)C=C[C@@H]1Oc1ccc(OC)cc1", "composite z-score": 0.0897}
{"compound": "CCN1C(=O)[C@H]2[C@H]3[C@H](O)[C@H](O)CC(=NOC[C@@H](O)COCc4ccco4)[C@H]3CC[C@H]2C1=O", "composite z-score": -0.099}
{"compound": "O=C1C[C@@H](O)[C@@H](O)[C@@H]2[C@@H]3C(=O)N(Cc4ccccc4)C(=O)[C@@H]3CC[C@H]12", "composite z-score": -0.0171}
{"compound": "CCc1cc2c(nc1CC)CCN(CCC(C)=NOCC[C@@H]1C=C[C@H](OC(C)=O)[C@@H](COC(C)=O)O1)C2", "composite z-score": 0.0579}
{"compound": "CC(=O)OC[C@H]1O[C@@H](ON=C(C)C)[C@H](OC(C)=O)[C@@H](OC(C)=O)[C@@H]1OC(C)=O", "composite z-score": -0.0393}
{"compound": "CC(CCN1CCc2nc(-c3ccccc3)c(-c3ccccc3)cc2C1)=NOC(C)CN1CCCc2nc(C)c(C)cc21 (centres undefined)", "composite z-score": 0.0709}
{"compound": "CO[C@@H]1COC(=O)CC=C[C@H](C)[C@H](OC)COC(=O)[C@@H]2CCCN2C(=O)CC=C[C@H]1C", "composite z-score": 0.153}

Note: attention shifts to another entry.
Request: Can you look up the measured composite z-score of CON=C(C)CCN1CCc2nc(-c3ccccc3)c(-c3ccccc3)cc2C1 for me?
Response: -0.158

* * *

Recorded composite z-score for the following compounds
Molecular target: Albumin (Bos taurus)
Test: bovine serum albumin binders on microarray, profiling panel, artefact control for SMM control protein annotation, biochemical, small-molecule microarray, Alexa647 label, 635/667 nm fluorescence (AID 1118);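 further: score merges 667 nm emission intensity and signal-to-noise per printed compound spot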
Settings: BSA-A647 binding, fluorescence 635 nm, higher = more signal
Could you respond with only the numeric value?

// below: answered compounds
{"compound": "CC(C)[C@@H](OCc1ccccc1)[C@H](C)C=NOC[C@@H](O)[C@H]1O[C@@H]2OC(C)(C)O[C@@H]2[C@H]1O", "tgt": "Albumin (Bos taurus)", "composite z-score": 0.0762}
{"compound": "CCOC(=O)CCN1C(=O)[C@H]2[C@H]3[C@H](O)[C@H](O)CC(=NO[C@@H]4O[C@H](CO)[C@@H](O)[C@H](O)[C@H]4O)[C@H]3CC[C@H]2C1=O", "tgt": "Albumin (Bos taurus)", "composite z-score": 0.0221}
{"compound": "COC(=O)CC=C[C@@H](C)[C@@H](C=NOC[C@@H](C)[C@H](OCc1ccccc1)C(C)C)NS(=O)(=O)c1ccc(C)cc1", "tgt": "Albumin (Bos taurus)", "composite z-score": -1.05}
{"compound": "CO[C@H]1COC(=O)[C@H](C)COC(=O)[C@@H](OCc2ccccc2)C=C[C@@H]1C", "tgt": "Albumin (Bos taurus)", "composite z-score": 0.0996}
{"compound": "C[C@@H]1CC[C@H]2C(=O)OC(CN3C(=O)c4ccccc4C3=O)CN2[C@H]1c1ccc(Br)cc1 (stereo partly specified)", "tgt": "Albumin (Bos taurus)", "composite z-score": 0.808}
{"compound": "CC(C)(C)N1C(=O)[C@H]2[C@@H]3C(=CC[C@H]2C1=O)C(=O)[C@H]1O[C@H]1[C@H]3O", "tgt": "Albumin (Bos taurus)", "composite z-score": 0.0159}

Request: Lab note: need composite z-score for CON=C[C@@H](OC)[C@H](C)C=CCC(=O)OC on Albumin (Bos taurus), anyone have it?
Response: -0.518

Request: Would you kindly repeat that for CCN(CC)CC(O)CN1CCCCc2nc(C)c(C)cc21 (stereo unspecified) ?
Response: 0.401

Request: Would you kindly repeat that for O=C1[C@H]2[C@H]3[C@H](O)[C@H](O)CC(=NOCc4ccccc4)[C@@H]3CC[C@H]2C(=O)N1c1cccc(Oc2ccccc2)c1 ?
Response: 0.446

Request: Would you kindly repeat that for C=CC[C@@H]1C=C[C@H](ON=C[C@@H](NS(=O)(=O)c2ccc(C)cc2)[C@H](C)C=CCC(=O)OC)[C@@H](CO)O1 ?
Response: 0.766

Request: Would you kindly repeat that for CON(C)C(=O)c1nnc2c(n1)[nH]c1ccccc12 ?
Response: 0.795

Request: Would you kindly repeat that for CC(=O)OC[C@H]1O[C@H](CC=NOC(C)CN2CCCc3nc(C)c(C)cc32)C=C[C@@H]1OC(C)=O (stereo partly specified) ?
Response: -0.0846

Request: Would you kindly repeat that for CC(C)CON=C1C[C@@H](O)[C@@H](O)[C@@H]2[C@@H]3C(=O)N(Cc4ccc5c(c4)OCO5)C(=O)[C@@H]3CC[C@@H]12 ?
Response: 0.713

Request: Would you kindly repeat that for COc1ccc(COC(=O)NN=C2C[C@@H](O)[C@@H](O)[C@@H]3[C@@H]4C(=O)N(C[C@@H]5CCCO5)C(=O)[C@@H]4CC[C@H]23)cc1 ?
Response: 0.533

Request: Would you kindly repeat that for CCOC(=O)[C@H](Cc1ccccc1)NC(=O)CCC1CC(OC(=O)NCc2cccc3ccccc23)CC2(CCCC(COC(=O)NCCc3ccc(Cl)cc3)O2)O1 (stereo partly specified) ?
Response: 0.278

Request: Would you kindly repeat that for COC(=O)CC=C[C@@H](C)[C@@H](C=NOC[C@@H](O)[C@H]1O[C@@H]2OC(C)(C)O[C@@H]2[C@H]1O)OC ?
Response: -0.0287
